Collected protease stability score values appear next to each entry.
procedure.details: protease stability score; higher = more stable; yeast display proteolysis, trypsin and chymotrypsin;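 further: log10 excess protease needed over predicted unfolded state with 0 meaning unfolded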
API doc: respond with a numeric literal and nothing else, no unit.

Examples with answers:
DEEEQRKAAHQYRKGDPDEAHHMFDENATVEIGNFHVQGREQVREAFEHMKRRADHREVDDMKIQGDKVQVDFQIVVNGQRVKATLDAKVKNGRAQSVRVEFRDEEDRTRAERWFK; 0.042
DEEKKDKASEMVRAEQKNNPDKVNELADKNAKFNIGDKRIHGREHLKKTIETENREARYDIDEVDVRAKNGKVDVKMSMRVRHNGRPDRFHVEQTVRFNNGKAQEVTRHKKK; -0.299

Input line: Which measured protease stability score value corresponds to DEELFELLRELLKAEQTGDEERLSQLVDKDVSVKIGDHVIHGRDQFAKHASERHKQMDVKVRIDSYEVRGDQVEASMTVVHDHNGRPHKDTVTLQAKYDNGKIKEMRFDFDTTVLKKIES ?
Output line: 0.609

Input line: Dear colleague, I am looking for the recorded protease stability score of the following sequence: DKDAAQLFHQYLEAKKHNNEDQLRENMDPNVQWTIGDKVITGREEAAKRMVDENREQRVEISHMQVHDNNGHAVFRADVRYKHNGKPSRSRFVVRVQARNGKIHSVKVERHS
Output line: 0.076

Input line: Quick one: protease stability score for DDEERAHEIFKKYQHVLKSNDEDKDRELMDPNARLHIGDKQYHGREQVTKYWHEVLTHADHLEANLKDFRVKGESINIVYTFRQNEDGRDSQVIIEMVMKRQGDHYTVTDNTQK ?
Output line: -0.044

Input line: So what does the record say about protease stability score for DEEEVTKVVKKLRENDRDSQRDLFDKDVRVKIGDKNVHGREQAVTFWDRFLNSVDRYHVDSVEIDGDQIKIDARAVVNGRKVRYVVVYTVRNGRIKEASVHFTNEDEEKEFEKNVG ?
Output line: 1.28

Input line: // protease stability score lookup, key: DDKHAEEVAELMTRNNFKQLAHQADPNVKIVVGEKKWHGREQMRTFMKILTKRVDHLNIQSYDVDNGRVKIDYVVNIDGQEIHVRVEIEFKNGRIQRYVLRATSDENQKELNKALS
Output line: 0.08

Input line: What measured protease stability score goes with DDEKARQQVREFIRAMETGDEDSMVQQLDENAHVHIGDHVWRGREQARNAFKEFVKQFDRIEVKRVEYRNGDVVIDAVANVNGVRVRIIFKIHIHNGRIKNLRIEYRDEEEKKQLDG ?
Output line: 1.99

Input line: Entry under review: DEEDVKRFAREFFTALQKNDEKKVTDLVDENARAEVGEREYHGREDVATMLARFNKRVDHAHLKRLEVTGDQVIMVFEVVHDGRKTNVSIDMRVHNGRLLEFRMETS . Reported protease stability score?
Output line: 1.41

Input line: Look up protease stability score for this sequence: DEEERRRLAKRVIDAMNTGDPDQVVEQIDPNARVEIGDKVYHGRDKAKKAAEERKRQADHVKLKSLEVHGNKVHARLIFNRNGENRTVLLRIKVSNGKALEIRFDHQ
Output line: 0.552

Input line: Can you look up the measured protease stability score of DEERSNLVESVFRALEHNDEKRLNELFDPNVNVQIGDDKIRGREELVKFMRTLKRQMRIRYRTMDLHVQGDKVVVRATFEVNVNGTPHNVTMEFHAEVHNGKFKHARIKIPEEKLKTMQS for me?
Output line: 1.57

---

procedure.details: protease stability score; higher = more stable; yeast display proteolysis, trypsin and chymotrypsin;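 further: log10 excess protease needed over predicted unfolded state with 0 meaning unfolded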
Measured protease stability score accompanies every entry in the list below.
Just the number.

Here's what some known entries look like.
DESLEDMARQLNTALQTNNPESVKEMFDKNARLEVGDKTWKGREHIDQWANRLRDEIRYEVRRFDLRVHGDKIEVNVHEEIQINGRPKSVSYSYTMRAHNGRIKHARYQPDPDAERRKKK; 0.031
DEDHESRVVELLEEIVRKGDPDEVRRQADPDARVDYGDKRLHGRDFRKAAKIIEEMRVDHQQFTTYKTHNGRAQMLVTVEHNGERRDIQIIVHYRGDKMKEMRFDTG; -0.224
DDHKAQRAVDIAKNWLTGNEEELQKQASEEVRFDYGDKTVHGMTEARTQAKRFHERMRADAKVHSFDVTGDKAVVNMVFEQEHNGRPTNRRYRVILDLHNGKVKEVQIDDDG; -0.069

Input line: Query: protease stability score; subject: DEEHQKKMAEDFVKALERGDKDQFHSLFDENAKMQYGDKTVHGREDVKRWVEHVKERVDHLKVDKIEVSGNKVVLKMVINVDGQRLDMVITIHLHNGHIQSAEARVTDPDQERKANS
Output line: 1.26

Input line: Entry DEHTSAHNFIEHEWKVFSTNDKKSMKELIDKNVKIDVGDKQVNGREEAARQEVETAKRVDHVDVKLQHLSVHNGRIKAQFRRVLRVDGQDNDEVLRFVIQLNNGNAQAKDKHET has what protease stability score?
Output line: 0.115

Input line: Report protease stability score for DEEKLREMMKKWQKVVQEKNTDEAKKLYHPNGEWENGSERDQGVEKVVKAIKTAQEKGFEFQIREVEVKGDKATMIYDLRNGDKTVTFHVEMEVDGGRVKRVRAKVSEEAKKLLTKG please.
Output line: 0.511

Input line: Consider the sequence shown here: DEDAARRMLEFLRQMEQGNEHELRHLADPNARMRVGDHTLHGMEDIAREQVERNRRLRFSNKVDRIKNDGDKVNLQIRFQIDVNGKPFTDVVSVNVHEHNGKIEFVEFRVPEEFREKVKR What is its recorded protease stability score?
Output line: 0.1

Input line: Reported protease stability score for DEKEVATRFVKTVVEILRRGNPDDWMKLVDPNATAHYGDKTYHGREELKTLMEDRNRHADRIDVDVKSYDAHNGKVQVHVVVVQTHNGRSTTHEVRIVADLHNGDAKIRSIQEQ : what is it?
Output line: 0.713

Input line: Reported protease stability score for DEEEEHKFEDQVRTNDPDKQRKQLDKDVHVEYGDRTYHGRDAVDKWYKKMKKQVDHVHYHDIRIRNGHATLQNEANVNGRNVRMHVDIEVHNGRLKRMTINFRDEEDTKLFDRLVR : what is it?
Output line: 0.048

Input line: Please give the measured protease stability score for this sequence: DEKRLKELLEHVFKQVMNGNEEEVLKHGKPDVQYEYLTKRYEGEDAMRVVIKKIKRIGAEVQVKRREVHGNTMRADFDYHKGDQTVRTTAEAKYEGDQVKEFRVKVTEEHKQVIHQG
Output line: 0.104

Input line: Query (sequence): DEDVERIIKRFLTALTHNDPEQAAQNVDPNAQVRIGDKSVHGKDQLKNRIEEEVKEMRVDIKHMSVDVKGNKASIHLHFVIQTNGKPDEKTAVMEVVVQGDKIHELELHDTK ; field requested: protease stability score
Output line: 0.725

---

procedure.details: protease stability score; higher = more stable; yeast display proteolysis, trypsin and chymotrypsin;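 further: log10 excess protease needed over predicted unfolded state with 0 meaning unfolded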
Documented protease stability score across a set of sequences
# output: bare number, no unit

DKDDQKRFTDTATKILQHNNPEKMRELADKDARLVVGDRTYTGRRQIVRHMEHLFRRVDHVQIKHVDVRGDHVEIDAVLDYNGRKERMTFVFQAHNGRIKQVEVQTG; 0.603

Input line: Please look up its protease stability score: DEKKVKEMVTEAQKAIENNDSDTMAKFLKPDVEFHFGDVKLKGPEDVKKYYDKVRRVGMEAHVKEAEVKGDTAQVVYDVEVKGKRVTITARVQMKDERVDRAEVELDEDYAREVTEG
Output line: -0.02

Input line: Which protease stability score is listed for ETHVINRAIEAARHGDEDTLSKLADENAHVSVGDKEFHGREQVKNALKDWHDQVDTFEMKKVEVRGNKADVKIKVVVNGRDMTMRMEINAKGESIREINFSYRDERAKHHAQNAQG ?
Output line: 0.169

Input line: Any idea what protease stability score was measured for DEKEKLKQLARKFHKAMQTGDEDELKKNVDENVRADYGDRRYHGSEELAKWLREMKTKVDHLSMTIKDIRVKGDRAEIELEMTFDHNGRQETRQFTLQAQVHNGSLKIVQIRQS ?
Output line: 1.32

Input line: For the sequence shown here, DREDNEQVKKILETNDFHRLAEQADKDAKAVVGEKRYHGREHVREALLRLQKQADHLEIDSMDTSGDKVVMRAKLKINGKTMDVTFDVVVHNGRLQHFEMSATTEDDERIQRTANS , give the reported protease stability score.
Output line: 0.743

Input line: protease stability score lookup needed for DERAEELLQRWMDAQRTGNPDEFVKLLDPNARYVVGDKEIHGSEQFKTHWQRQQDEMNVKVDVEDVKFSGNKISVRFHIEVDVNGRPLTDTATATWDLHNGRIKRQVYHLDPEFLRQVDS , thanks.
Output line: 0.936

Input line: What does the data say about its protease stability score? Entry: EKEIVNNFKDWVRALTTGDEDRLRNYADPNAQFVVGEKRFHGMDDYVEDMRRRRTEIRVEIRVHHMNSTGEKIEIHAEQTHEHNGKPETHEFKMKAEVHNGRHKSVTQHDDG
Output line: 0.201

Input line: Quick one: protease stability score of DEELQELATRQMEALHTNDEKQWVDLFDPNARQRYGDKTIKGREQFSQHLRDMQRHMRVQIHTFSAQVSNGDIHLKIDQLNNVNGTPYRDTVHLEFRVHNGRVKEVILHVSEDQQKKIER ?
Output line: 0.918

Input line: Give its protease stability score value. Item: DENKEAKHFAQDINDAFQHNDPDHLNRLFDPNARMQIGDKEIRGKEQFKEENRRMVDQVDKVEVHVKEISVHNGRVEFVLIIRENHNGRNTQTSVEVNAEKQNGQIRIRQETEQ
Output line: -0.307

Input line: # lookup: protease stability score of DEDHNRRVAKRFIEAVLSGDPEQAKRNADKHVKLQVGDKEYRGRDDLKTWIEQVSTRADHNQIHSMSVSGNRMNVDVKFNHNGRRERTVIRVEVENGKVKKVEVHSG
Output line: 0.975

Input line: Given DEHNHKVAEEIFKALTTGDPDKVRENFDKDASLVIGDKTVNGRKQIKEEVQKRKDEMRIDFKNIDIQVSDGKVRVNVRMQVNINGQPVDFTLDAEFDIHNGKAKQVRFEFDEKDKRTLEQ , state its recorded protease stability score.
Output line: -0.059

Input line: # protease stability score lookup, item DTKERQNRAEEINKNFKEGNPHEYMSMLDKNASAQVGDKQVHGRERMSKRIEDIVRRADKLTIETFHVSGDKVEIVVQLIVNGTRVRMEVEIKFENGHAKHVEFNPEQDKQLKQ
Output line: 0.421

All values here come from the NTF2 design screens of Basanta et al. (2020).
